For each record, write down the corresponding Plant Height 10th Day.
system: tomato seedlings; assay: Response of tomato plants, greenhouse growth (Ex. 30); format: in vivo; conditions: tomato seedlings; 10th day after application; dose 1 ml/gm/lit
Please answer using the number first and the unit second.

molecule CC12CCC(CC1)C(C)(C)O2 , Plant Height 10th Day observed: 7.53 cm

The reported value for COc1cc(CNC(=O)CCCC/C=C/C(C)C)ccc1O in terms of Plant Height 10th Day is 7.86 cm

The measured Plant Height 10th Day associated with O=C(/C=C/C=C/c1ccc2c(c1)OCO2)N1CCCCC1 reads 7.02 cm

Value of measured Plant Height 10th Day for the entry CCCCCCCCCCCCCCCC(=O)O : 8.54 cm

Recorded result, C=CCc1ccc(OC)c(O)c1 , Plant Height 10th Day: 8.34 cm

Looking up Cc1ccc(C(C)C)c(O)c1 , I found its Plant Height 10th Day recorded as 7.62 cm

The recorded Plant Height 10th Day for CC1=CC(=O)C(C(C)C)=CC1=O is 7.69 cm

Form field Plant Height 10th Day, entry C/C=C\c1cc(OC)c(OC)cc1OC : 7.24 cm

Record O=c1oc2c(O)c(O)cc3c(=O)oc4c(O)c(O)cc1c4c23 . Reported Plant Height 10th Day: 8.18 cm

# molecule CC12CCC(CC1=O)C2(C)C (stereo not drawn) ; its Plant Height 10th Day = 6.96 cm

Short answer for Cc1ccc(C(C)C)cc1O : Plant Height 10th Day was 7.23 cm

For CC1CCC(C(C)C)C(O)C1 (stereo not drawn) the molecule record lists Plant Height 10th Day as 7.18 cm

* * *

test system: Spodoptera litura; conditions: in vivo
Please respond with reported % Mortality at 72 Hrs. for every item in the list.
Write the answer as a number in %, unit excluded.

Lookup result for Cc1ccc(C(C)C)cc1 ; measured % Mortality at 72 Hrs.: 70.00

For CC(C)=CCCC(C)=CC=O the compound record lists % Mortality at 72 Hrs. as 52.50

So, COc1cc(CNC(=O)CCCC/C=C/C(C)C)ccc1O ? Its % Mortality at 72 Hrs. was 47.50

According to the records, this compound CC(C)c1ccc(C=O)cc1 displays % Mortality at 72 Hrs. of 55.00

* * *

tested on: Thrips; details: thrips on cotton plants, greenhouse; dose 1 ml/gm/lit. spray; 48 hrs; corrected for water control
Measure name: % Corrected Mortality at 48 Hrs. (%)
The response must be a number in % with no trailing unit.

Summary: CCCCCCCCCCCCCCCC(=O)O , Thrips, % Corrected Mortality at 48 Hrs. = 33.33

Thrips data for CC12CCC(CC1)C(C)(C)O2 ; its % Corrected Mortality at 48 Hrs.: 63.89

GET /values?item= O=c1oc2c(O)c(O)cc3c(=O)oc4c(O)c(O)cc1c4c23 &system= Thrips returns % Corrected Mortality at 48 Hrs.: 25.00

For CCCCCCCCCC(C)=O on Thrips, measured % Corrected Mortality at 48 Hrs. was 41.67

Response field % Corrected Mortality at 48 Hrs. (Thrips) for item Cc1ccc(C(C)C)cc1O : 25.00

Lab note: compound CC1=CCC2CC1C2(C)C (stereo not drawn) tested on Thrips; recorded % Corrected Mortality at 48 Hrs. was 36.11

* * *

test system: tomato seedlings; test: Response of tomato plants, greenhouse growth (Ex. 30); type: in vivo; conditions: tomato seedlings; 10th day after application; dose 1 ml/gm/lit
Measure name: Plant Height 10th Day (cm)
Report the figure in cm without appending any unit label.

Entry CCCCCCCCCC(C)=O ; Plant Height 10th Day = 7.56

The compound listed as C=CCc1ccc(OC)cc1 shows Plant Height 10th Day equal to 7.86

Lab note: measured Plant Height 10th Day of CC1=CCC2CC1C2(C)C (stereo not shown) was 7.74

For reference, reported Plant Height 10th Day for CC(C)c1ccc(C=O)cc1 stands at 7.33

* * *

Please provide measured % Mortality at 72 Hrs. for the entries that follow.
test system: Spodoptera litura; conditions: Spodoptera litura 3rd instar on cabbage plants; dose 1 ml/gm/lit. spray; 72 hrs after application
Express it in %; write the number only.

Briefly, % Mortality at 72 Hrs. measured for C/C=C\c1cc(OC)c(OC)cc1OC : 55.00

molecule CC1=CCC2CC1C2(C)C (stereo not drawn) , % Mortality at 72 Hrs. observed: 55.00

Documented % Mortality at 72 Hrs. of Cc1ccc(C(C)C)cc1O : 47.50

* * *

For each record, write down the corresponding Plant Height (cm) 5th Day.
system: chili seedlings; experiment: Response of chili plants, greenhouse growth (Ex. 31); format: in vivo; conditions: chili seedlings; dose 1 ml/gm/lit; 5th day after application
Please state the figure in cm; there is no need to write the unit.

Form field Plant Height (cm) 5th Day, entry Cc1ccc(C(C)C)c(O)c1 : 6.13

Lab note: measured Plant Height (cm) 5th Day of CC1=CCC2CC1C2(C)C (stereo not drawn) was 6.35

Record O=C(/C=C/C=C/c1ccc2c(c1)OCO2)N1CCCCC1 , field Plant Height (cm) 5th Day: 6.30

For reference, reported Plant Height (cm) 5th Day for CCCCCCCCCC(C)=O stands at 5.97

CC1=CC(=O)C(C(C)C)=CC1=O yielded Plant Height (cm) 5th Day of 5.77

Data point: Cc1ccc(C(C)C)cc1O ; Plant Height (cm) 5th Day = 6.33

The measured Plant Height (cm) 5th Day associated with CC12CCC(CC1=O)C2(C)C (stereo not drawn) reads 5.70

The recorded Plant Height (cm) 5th Day for entry C=CCc1ccc(OC)cc1 equals 5.97

compound CC1CCC(C(C)C)C(O)C1 (stereo not drawn) , Plant Height (cm) 5th Day observed: 6.48

C/C=C\c1cc(OC)c(OC)cc1OC yielded Plant Height (cm) 5th Day of 5.70

Entry O=c1oc2c(O)c(O)cc3c(=O)oc4c(O)c(O)cc1c4c23 ; Plant Height (cm) 5th Day = 5.77

Record CCCCCCCCCCCCCCCC(=O)O , field Plant Height (cm) 5th Day: 6.30

Lab note: measured Plant Height (cm) 5th Day of COc1cc(CNC(=O)CCCC/C=C/C(C)C)ccc1O was 6.30

Plant Height (cm) 5th Day for CC12CCC(CC1)C(C)(C)O2 is 6.99

// Plant Height (cm) 5th Day value for C=CCc1ccc(OC)c(O)c1 : 5.07

* * *

Please provide measured % Corrected Mortality at 48 Hrs. for the entries that follow.
system: Mite; settings: mite on okra plants, green house; dose 1 ml/gm/lit. spray; 48 hrs; corrected for water control

Consider Cc1ccc(C(C)C)cc1O . Its measured % Corrected Mortality at 48 Hrs. is 44.74%

Lab note: measured % Corrected Mortality at 48 Hrs. of CCCCCCCCCC(C)=O was 23.68%

// % Corrected Mortality at 48 Hrs. value for CC1CCC(C(C)C)C(O)C1 (stereo not drawn) : 39.47%

Lab book: % Corrected Mortality at 48 Hrs. of C=CCc1ccc(OC)cc1 noted as 39.47%

Reported % Corrected Mortality at 48 Hrs. of CCCCCCCCCCCCCCCC(=O)O : 42.11%

Record summary for CCCCC[C@H](O)CC(=O)CCc1ccc(O)c(OC)c1 : reported % Corrected Mortality at 48 Hrs. = 26.32%

Kindly note the recorded % Corrected Mortality at 48 Hrs. for CC1=CC(=O)C(C(C)C)=CC1=O , which is 26.32%

% Corrected Mortality at 48 Hrs. measured on O=c1oc2c(O)c(O)cc3c(=O)oc4c(O)c(O)cc1c4c23 = 50.00%

// sample CC12CCC(CC1=O)C2(C)C (stereo not drawn) , its % Corrected Mortality at 48 Hrs. was 63.16%

* * *

tested on: Mite; conditions: mite on okra plants, green house; dose 1 ml/gm/lit. spray; 48 hrs after application
Measure name: % Mortality at 48 Hrs. (%)
Dear colleague, please return just the value in %, with no unit written.

Short answer for C=CCc1ccc(OC)cc1 : % Mortality at 48 Hrs. was 42.50

Recorded result, C/C=C\c1cc(OC)c(OC)cc1OC , % Mortality at 48 Hrs.: 22.50

The compound CC1=CC(=O)C(C(C)C)=CC1=O showed % Mortality at 48 Hrs. equal to 30.00

Record C=C(C)[C@H]1CC=C(C)CC1 , field % Mortality at 48 Hrs.: 52.50

Input O=C(/C=C/C=C/c1ccc2c(c1)OCO2)N1CCCCC1 . Output % Mortality at 48 Hrs.: 60.00

Form: compound = CCCCCCCCCCCCCCCC(=O)O ; % Mortality at 48 Hrs. = 45.00

Entry CCCCCCCCCC(C)=O , % Mortality at 48 Hrs. reported as 27.50

Note to self: % Mortality at 48 Hrs. recorded for CCCCC[C@H](O)CC(=O)CCc1ccc(O)c(OC)c1 was 30.00

Short answer for CC12CCC(CC1=O)C2(C)C (stereo not shown) : % Mortality at 48 Hrs. was 65.00

Value of % Mortality at 48 Hrs. reported for the compound C=C1C2CCC(C2)C1(C)C (stereo not shown) is 40.00

So for CC1CCC(C(C)C)C(O)C1 (stereo not shown) , the logged % Mortality at 48 Hrs. turned out to be 42.50

Given item CC12CCC(CC1)C(C)(C)O2 , the value recorded as its % Mortality at 48 Hrs. is 22.50

Sure, the documented % Mortality at 48 Hrs. for Cc1ccc(C(C)C)cc1O is 47.50

For CC1=CCC2CC1C2(C)C (stereo not shown) the compound record lists % Mortality at 48 Hrs. as 32.50

The recorded % Mortality at 48 Hrs. for entry Cc1ccc(C(C)C)c(O)c1 equals 62.50

Record summary for O=c1oc2c(O)c(O)cc3c(=O)oc4c(O)c(O)cc1c4c23 : reported % Mortality at 48 Hrs. = 52.50

Each recorded value in this set is attributed to patent US20250351832A1.
